Provenance of the data: the supplement of paper PMC6555819

sequences and their reported PBM binding z-score
- Test system: THRa:RXRa (NR concentration 90 nM, RXRa partner concentration 90 nM)
- Method Description: PBM binding z-score (relative to random genomic background probes); higher = stronger binding; sequences stand for … in GC…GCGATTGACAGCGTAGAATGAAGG

Biopolymer Sequence: CAAACTAGGTCAAGGTCACAGTCGGTTTGTGCCA
PBM binding z-score: 4.67
--
Biopolymer Sequence: TCTTGTAGCTCAAGCAGGTTAAGAAAGCCTGAGT
PBM binding z-score: 0.103
--
Biopolymer Sequence: TCATATTGGTAAACAGGTGAAAGTCCGTAAGTTA
PBM binding z-score: 0.634
--
Biopolymer Sequence: GCTGCTAGGTCAACTGATGTTCAGCTAAAGCTCG
PBM binding z-score: 2.89
--
Biopolymer Sequence: AATACAGGGTCATGGTAGGCCAGAGTACGCACAG
PBM binding z-score: 4.38

---

- System: LXRa homodimer (NR concentration 270 nM)
- Method Description: PBM binding z-score (relative to random genomic background probes); higher = stronger binding; sequences stand for … in GC…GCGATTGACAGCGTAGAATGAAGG
The following sequences are shown together with reported PBM binding z-score values.

Biopolymer Sequence: TAGCCTAGGTCATGCGCCAGTATACCACGCGAAC
Measured On: LXRa homodimer (NR concentration 270 nM)
PBM binding z-score: 0.602
//
Biopolymer Sequence: GCTAGTTGGTCAGTAAGAGGTCACACACCGGTCG
Measured On: LXRa homodimer (NR concentration 270 nM)
PBM binding z-score: 4.57
//
Biopolymer Sequence: GCTAGTTGGACAGTAAAAGGTCACACACCGGTCG
Measured On: LXRa homodimer (NR concentration 270 nM)
PBM binding z-score: 4.25
//
Biopolymer Sequence: TCTTGCAGATCAAGCAGGTTAAGAAAGCCTGAGT
Measured On: LXRa homodimer (NR concentration 270 nM)
PBM binding z-score: -0.304
//
Biopolymer Sequence: CAGCCTAGGTCTGGGCCAGTATAGGAGGAACGTT
Measured On: LXRa homodimer (NR concentration 270 nM)
PBM binding z-score: -0.89
//
Biopolymer Sequence: ATATGTAGGTAATCGGGTCATTCAGTTTGCGCAT
Measured On: LXRa homodimer (NR concentration 270 nM)
PBM binding z-score: 0.62
//
Biopolymer Sequence: TCTTGTAGATTAAGCAGGTTAAGAAAGCCTGAGT
Measured On: LXRa homodimer (NR concentration 270 nM)
PBM binding z-score: -0.181
//
Biopolymer Sequence: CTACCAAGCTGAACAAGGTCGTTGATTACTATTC
Measured On: LXRa homodimer (NR concentration 270 nM)
PBM binding z-score: 0.686
//
Biopolymer Sequence: TCTGCAAGGTCAACGATGGTCAGCTAATCTGCTA
Measured On: LXRa homodimer (NR concentration 270 nM)
PBM binding z-score: 0.751
//
Biopolymer Sequence: CGAACTAGGTCAGATCAGGACAGTGAAGGATGAT
Measured On: LXRa homodimer (NR concentration 270 nM)
PBM binding z-score: -0.182
//
Biopolymer Sequence: AGAATGAGGTAAAGATCAGGGAAACAGAATACAT
Measured On: LXRa homodimer (NR concentration 270 nM)
PBM binding z-score: -0.176
//
Biopolymer Sequence: TCTTGTAGATCAAGCAGGTTAAGGAAGCCTGAGT
Measured On: LXRa homodimer (NR concentration 270 nM)
PBM binding z-score: -0.315
//
Biopolymer Sequence: TCATATAGGTAAACAGGTGGAAGTCCGTAAGTTA
Measured On: LXRa homodimer (NR concentration 270 nM)
PBM binding z-score: 0.229
//
Biopolymer Sequence: TCATATAGGTAAAAGGTGAAAGTCGGTGTGGTAA
Measured On: LXRa homodimer (NR concentration 270 nM)
PBM binding z-score: 0.452
//
Biopolymer Sequence: CGTCAAAGTTCAACCAAGGTAACGTAAAGCACGC
Measured On: LXRa homodimer (NR concentration 270 nM)
PBM binding z-score: 4.15
//
Biopolymer Sequence: GCATATAGGTAATACTAGGTGAAAGTCCGATTGT
Measured On: LXRa homodimer (NR concentration 270 nM)
PBM binding z-score: 0.179
//
Biopolymer Sequence: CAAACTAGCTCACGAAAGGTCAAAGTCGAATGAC
Measured On: LXRa homodimer (NR concentration 270 nM)
PBM binding z-score: 5.5
//
Biopolymer Sequence: TTACCAACGTGAAAGGTCGTTGATGCACGCCTTG
Measured On: LXRa homodimer (NR concentration 270 nM)
PBM binding z-score: 0.436
//
Biopolymer Sequence: ATCTCTAGGTAACAAGTCCAGTGAAAGAGAGGAC
Measured On: LXRa homodimer (NR concentration 270 nM)
PBM binding z-score: 0.362
//
Biopolymer Sequence: CCTTACGGGTCACTGACAGGCTATAGCATTTGGA
Measured On: LXRa homodimer (NR concentration 270 nM)
PBM binding z-score: -0.0559
//
Biopolymer Sequence: GGAACGAGGGCGTTCGAGTTGATAGCATGGCGAT
Measured On: LXRa homodimer (NR concentration 270 nM)
PBM binding z-score: -0.938
//
Biopolymer Sequence: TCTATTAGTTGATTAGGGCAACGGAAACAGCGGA
Measured On: LXRa homodimer (NR concentration 270 nM)
PBM binding z-score: 0.103
//
Biopolymer Sequence: CCTTACGGGTCACGAGGTTATAGGACGACGAGCG
Measured On: LXRa homodimer (NR concentration 270 nM)
PBM binding z-score: 0.193
//
Biopolymer Sequence: GATACAGGGTCCGCTAGAGGCCAGAGTATGGAAA
Measured On: LXRa homodimer (NR concentration 270 nM)
PBM binding z-score: -0.713
//
Biopolymer Sequence: TCTATTAGTTGATTAGGGCAAACGAAACAGCGGA
Measured On: LXRa homodimer (NR concentration 270 nM)
PBM binding z-score: 0.307
//
Biopolymer Sequence: TGAATGAGGGTAAAGATCAGGGAACGTGGCGTCG
Measured On: LXRa homodimer (NR concentration 270 nM)
PBM binding z-score: -0.456
//
Biopolymer Sequence: TCATATAGGTGAAGGTGAAAGTCGAACGATATGA
Measured On: LXRa homodimer (NR concentration 270 nM)
PBM binding z-score: -0.543
//
Biopolymer Sequence: CCGATTGGGGCAAGGTTACCATAACGCACAGCCA
Measured On: LXRa homodimer (NR concentration 270 nM)
PBM binding z-score: -0.246
//
Biopolymer Sequence: ATCTTTAGGTAAAGTTCAGTGAAAGATCGATAGA
Measured On: LXRa homodimer (NR concentration 270 nM)
PBM binding z-score: 1.25
//
Biopolymer Sequence: CAAACTAGGTCACCGGAAGGTCAAACTCCGCATG
Measured On: LXRa homodimer (NR concentration 270 nM)
PBM binding z-score: 6.11
//
Biopolymer Sequence: ATACCAAGGTGATCGAGAGGTCGTTGATACTAAC
Measured On: LXRa homodimer (NR concentration 270 nM)
PBM binding z-score: 0.71
//
Biopolymer Sequence: GGAACGAGGCCATTCGAGTTGATAGCATGGCGAT
Measured On: LXRa homodimer (NR concentration 270 nM)
PBM binding z-score: -0.48
//
Biopolymer Sequence: CCTAGTTGGTCTAGGTCACACACGCTATAGGTAC
Measured On: LXRa homodimer (NR concentration 270 nM)
PBM binding z-score: 1.3
//
Biopolymer Sequence: CAAACTAGGTCACAGAGGTCAAAGCCCGTGCGTA
Measured On: LXRa homodimer (NR concentration 270 nM)
PBM binding z-score: 6.92
//
Biopolymer Sequence: CGAACTAGGTCATCCAAGACAGTGAATACATTGA
Measured On: LXRa homodimer (NR concentration 270 nM)
PBM binding z-score: 0.551
//
Biopolymer Sequence: GCTGCTAGGTCAACTGATTGTCAGCTAAAGCTCG
Measured On: LXRa homodimer (NR concentration 270 nM)
PBM binding z-score: -0.17
//
Biopolymer Sequence: ACTAGCTGGCCAAGGGTCACTCAAGATTAGTCCG
Measured On: LXRa homodimer (NR concentration 270 nM)
PBM binding z-score: 0.129
//
Biopolymer Sequence: CGAACTTGGTCAAGGACAGTGAATCTCCGCACGC
Measured On: LXRa homodimer (NR concentration 270 nM)
PBM binding z-score: -0.73

---

# PBM binding z-score per record follows
- Tested on: PPARg DBDmut IVT, anti-PPARg (DBD mutation: PPARg1 K132A/R137A, NR concentration 270 nM)
- Method Description: PBM binding z-score (relative to random genomic background probes); higher = stronger binding; sequences stand for … in GC…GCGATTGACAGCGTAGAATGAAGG
Metric Name: PBM binding z-score

Biopolymer Sequence: CTTACTGGGCCATTCAGAGGTCATTGATCATATG
Metric Name: PBM binding z-score
Observed Measurement: 1.22
//
Biopolymer Sequence: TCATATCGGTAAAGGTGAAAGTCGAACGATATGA
Metric Name: PBM binding z-score
Observed Measurement: 0.266
//
Biopolymer Sequence: ATTCAAAGTTCACTAGGTAACGTAAGATTCAGCT
Metric Name: PBM binding z-score
Observed Measurement: 2.19
